biological target: O-GlcNAcase (Rattus norvegicus (Rat), UniProt Q8VIJ5); assay: Cell-based ELISA of O-GlcNAcylated protein (RL-2 antibody) for cellular O-GlcNAcase inhibition
Sequence (Q8VIJ5 whole entry): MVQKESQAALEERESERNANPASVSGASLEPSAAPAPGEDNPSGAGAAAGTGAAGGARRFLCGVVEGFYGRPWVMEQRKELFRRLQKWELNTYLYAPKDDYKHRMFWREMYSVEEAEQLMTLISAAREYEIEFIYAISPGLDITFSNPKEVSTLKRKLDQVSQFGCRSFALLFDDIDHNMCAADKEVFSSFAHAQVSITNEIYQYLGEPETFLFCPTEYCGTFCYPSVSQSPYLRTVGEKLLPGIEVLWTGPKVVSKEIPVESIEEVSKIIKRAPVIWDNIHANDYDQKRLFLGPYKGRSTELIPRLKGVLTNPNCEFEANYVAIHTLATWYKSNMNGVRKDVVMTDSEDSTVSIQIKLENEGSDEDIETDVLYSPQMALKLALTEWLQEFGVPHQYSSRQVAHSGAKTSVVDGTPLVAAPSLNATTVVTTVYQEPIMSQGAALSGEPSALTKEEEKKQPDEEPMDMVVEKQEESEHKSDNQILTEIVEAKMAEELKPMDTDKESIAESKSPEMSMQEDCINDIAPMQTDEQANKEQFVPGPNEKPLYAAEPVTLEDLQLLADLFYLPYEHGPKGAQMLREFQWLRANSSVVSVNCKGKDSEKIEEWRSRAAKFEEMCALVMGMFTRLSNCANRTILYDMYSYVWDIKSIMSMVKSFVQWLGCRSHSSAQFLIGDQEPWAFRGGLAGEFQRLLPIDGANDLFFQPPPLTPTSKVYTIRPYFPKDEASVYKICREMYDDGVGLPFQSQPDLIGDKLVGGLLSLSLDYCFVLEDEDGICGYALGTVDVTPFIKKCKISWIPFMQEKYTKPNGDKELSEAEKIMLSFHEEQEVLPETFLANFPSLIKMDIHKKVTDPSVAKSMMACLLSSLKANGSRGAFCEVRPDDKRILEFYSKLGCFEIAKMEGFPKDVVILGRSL
readout.type: EC50 (nM)
Unit nM implied. Number only.

Lookup: What EC50 appears in the records for this molecule with O-GlcNAcase (Rattus norvegicus (Rat), UniProt Q8VIJ5)? CNC1=N[C@@H]2[C@@H](O)[C@H](O)[C@@H](CNC3CCCC3)O[C@@H]2S1
Found: 3.7

----------
molecular target: human O-GlcNAcase (Homo sapiens (Human))
Sequence (O60502 whole entry): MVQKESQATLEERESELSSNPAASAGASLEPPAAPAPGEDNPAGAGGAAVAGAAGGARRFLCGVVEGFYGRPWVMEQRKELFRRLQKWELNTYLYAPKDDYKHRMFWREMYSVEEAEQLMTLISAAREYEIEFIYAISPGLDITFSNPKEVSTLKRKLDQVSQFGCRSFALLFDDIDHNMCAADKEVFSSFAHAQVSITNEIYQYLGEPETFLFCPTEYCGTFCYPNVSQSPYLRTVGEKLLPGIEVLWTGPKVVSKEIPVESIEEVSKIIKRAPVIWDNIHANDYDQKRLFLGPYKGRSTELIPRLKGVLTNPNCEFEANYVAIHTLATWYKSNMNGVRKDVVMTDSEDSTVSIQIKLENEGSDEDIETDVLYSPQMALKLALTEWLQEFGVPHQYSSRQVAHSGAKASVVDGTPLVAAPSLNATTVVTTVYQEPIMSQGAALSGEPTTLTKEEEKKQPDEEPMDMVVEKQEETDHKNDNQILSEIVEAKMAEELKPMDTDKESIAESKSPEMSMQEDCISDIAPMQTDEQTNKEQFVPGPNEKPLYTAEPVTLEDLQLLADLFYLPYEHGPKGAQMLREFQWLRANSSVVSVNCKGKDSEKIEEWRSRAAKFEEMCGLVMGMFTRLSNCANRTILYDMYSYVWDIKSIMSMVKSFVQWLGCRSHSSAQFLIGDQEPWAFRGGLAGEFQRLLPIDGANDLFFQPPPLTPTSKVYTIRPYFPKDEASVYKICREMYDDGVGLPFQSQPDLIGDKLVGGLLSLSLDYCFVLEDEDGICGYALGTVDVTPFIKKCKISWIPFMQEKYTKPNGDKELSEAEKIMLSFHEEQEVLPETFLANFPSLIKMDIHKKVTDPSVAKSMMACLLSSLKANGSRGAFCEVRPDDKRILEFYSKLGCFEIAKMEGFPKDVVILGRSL
readout.type: pKi
By convention, pKi is the negative base-10 log of a molar concentration.

Lookup: Write down the reported pKi of CNC1=N[C@@H]2[C@@H](O)[C@H](O)[C@@H](CNCC#N)O[C@@H]2S1 [Example 53] , test system: human O-GlcNAcase (Homo sapiens (Human)).
Found: 8.27

----------
target: O-GlcNAcase (Rattus norvegicus (Rat)); test: Cell-based ELISA of O-GlcNAcylated protein (RL-2 antibody) for cellular O-GlcNAcase inhibition; conditions: rat PC-12 cells, 24 h treatment, O-GlcNAcylated protein detected with RL-2 antibody; read-out: Cell-based ELISA EC50
readout.type: EC50 (nM)
API: value field is a number in nM; no unit string.

Lookup: Dear colleague, I am looking for the recorded EC50 of the following compound: CNC1=N[C@@H]2[C@@H](O)[C@H](O)[C@@H](COC(=O)N(C)C)O[C@@H]2S1
Found: 212
